# key: entry, value: IL-1β
# Test system: IL-1β production by mouse peritoneal macrophages
# procedure_text: IL-1β production by mouse peritoneal macrophages (ELISA)
# Type: cell-based
# settings: dose 0.05 μM; mouse peritoneal macrophages, 48 h, ELISA
Peptide text beside a SMILES is read from it. * marks the point of attachment. X68 = O=C1C=CC(=O)N1c1ccccc1CCCCCCCCCCCC(=O)*; X66 = O=C1C=CC(=O)N1c1cccc(CCCCCCCC(=O)*)c1; X63 = O=C1C=CC(=O)N1c1ccccc1CCCCCCC(=O)*
A bare number is not enough; add the unit after it.

C[C@H](NC(=O)CNC(=O)[C@H](CCCNC(=N)N)NC(=O)CCCCCCc1ccccc1N1C(=O)C=CC1=O)C(=O)N[C@@H](CC(=O)O)C(=O)N[C@@H](CCCNC(=N)N)C(=O)N[C@@H](C)C(=O)NCC(=O)NCC(=O)NCC(=O)NCC(=O)N[C@@H](CCCNC(=N)N)C(=O)NCC(=O)N[C@@H](CC(=O)O)C(=O)O [X18] (X63-RGADRAGGGGRGD-OH)
721.31 ± 12.75 pg/mL

Name the recorded IL-1β for C[C@H](NC(=O)CNC(=O)[C@H](CCCNC(=N)N)NC(=O)CCCCCCCc1cccc(N2C(=O)C=CC2=O)c1)C(=O)N[C@@H](CC(=O)O)C(=O)N[C@@H](CCCNC(=N)N)C(=O)N[C@@H](C)C(=O)NCC(=O)NCC(=O)NCC(=O)NCC(=O)N[C@@H](CCCNC(=N)N)C(=O)NCC(=O)N[C@@H](CC(=O)O)C(=O)O [X31] (X66-RGADRAGGGGRGD-OH) .
797.34 ± 10.46 pg/mL

Name the recorded IL-1β for C[C@H](NC(=O)CNC(=O)[C@H](CCCNC(=N)N)NC(=O)CCCCCCCCCCCc1ccccc1N1C(=O)C=CC1=O)C(=O)N[C@@H](CC(=O)O)C(=O)N[C@@H](CCCNC(=N)N)C(=O)N[C@@H](C)C(=O)NCC(=O)NCC(=O)NCC(=O)NCC(=O)N[C@@H](CCCNC(=N)N)C(=O)NCC(=O)N[C@@H](CC(=O)O)C(=O)O [X23] (X68-RGADRAGGGGRGD-OH) .
793.48 ± 19.42 pg/mL
